tested on: Pseudomonas aeruginosa; assay: Antibacterial activity against Pseudomonas aeruginosa QSIS2 after 20 hrs by broth microdilution assay; format: functional; conditions: QSIS2, 20 h
assay-readout: MIC (mM)

compound="O=C1OCCC1n1cc(CCc2ccccc2)nn1 (stereo not given)" unit_info=mM numeric_value=5
compound="O=C1OCCC1n1cc(-c2ccccc2)nn1 (stereo not given)" unit_info=mM numeric_value=5
compound="CCCCCCCCCCCCc1cn(C2CCOC2=O)nn1 (stereo not given)" unit_info=mM numeric_value=2.5
compound="CCCCCc1cn(C2CCOC2=O)nn1 (stereo not given)" unit_info=mM numeric_value=5
compound="CCCCCCCc1cn(C2CCOC2=O)nn1 (stereo not given)" unit_info=mM numeric_value=5
compound="CCCCc1cn(C2CCOC2=O)nn1 (stereo not given)" unit_info=mM numeric_value=5
compound="O=C1OCCC1n1cc(Cc2ccccc2)nn1 (stereo not given)" unit_info=mM numeric_value=5
compound="CCCCCCCCc1cn(C2CCOC2=O)nn1 (stereo not given)" unit_info=mM numeric_value=2.5
compound="CCCCCCc1cn(C2CCOC2=O)nn1 (stereo not given)" unit_info=mM numeric_value=5
compound="CCCCCCCCCCc1cn(C2CCOC2=O)nn1 (stereo not given)" unit_info=mM numeric_value=2.5

---

target: Transcriptional activator protein LuxR (Aliivibrio fischeri); test: Antagonist activity at Vibrio fischeri LuxR-mediated quorum sensing expressed in Escherichia coli JB523 assessed as inhibition of C6-HSL-induced GFP expression at 0.1 mM after 24 hrs by reporter gene assay; type: functional
Active and inactive are the calls of the source. The calls are words filed in the database; no cut-off is given here.
assay-readout: inhibition

molecule="O=C1OCCC1n1cc(-c2ccccc2)nn1 (configuration not stated)" result=inactive
molecule="CCCCCCCc1cn(C2CCOC2=O)nn1 (configuration not stated)" result=13.7%
molecule="CCCCCCCCCCCCc1cn(C2CCOC2=O)nn1 (configuration not stated)" result=inactive
molecule="CCCCCCCCCCc1cn(C2CCOC2=O)nn1 (configuration not stated)" result=12.4%
molecule="CCCCCCCCc1cn(C2CCOC2=O)nn1 (configuration not stated)" result=34.1%
molecule="CCCCCc1cn(C2CCOC2=O)nn1 (configuration not stated)" result=9%
molecule="CCCCc1cn(C2CCOC2=O)nn1 (configuration not stated)" result=12.7%

---

system: Pseudomonas aeruginosa; assay: Antagonist activity at Pseudomonas aeruginosa QSIS2 LasR-mediated quorum sensing co-expressing SacB1 assessed as inhibition of 3-oxo-C12-HSL-induced luminescence at 0.5 mM after 24 hrs by reporter gene assay; format: functional
Active and inactive are the calls of the source. The rule behind the calls is not given here.
assay-readout: inhibition

compound="CCCCCc1cn(C2CCOC2=O)nn1 (configuration not stated)" result=inactive
compound="CCCCCCc1cn(C2CCOC2=O)nn1 (configuration not stated)" result=inactive
compound="CCCCc1cn(C2CCOC2=O)nn1 (configuration not stated)" result=inactive
compound="O=C1OCCC1n1cc(Cc2ccccc2)nn1 (configuration not stated)" result=inactive
compound="CCCCCCCc1cn(C2CCOC2=O)nn1 (configuration not stated)" result=inactive
compound="O=C1OCCC1n1cc(CCc2ccccc2)nn1 (configuration not stated)" result=35.2%
compound="CCCCCCCCc1cn(C2CCOC2=O)nn1 (configuration not stated)" result=inactive

---

Biological target: Transcriptional activator protein LuxR (Aliivibrio fischeri) (UniProt P12746)
Sequence (whole entry): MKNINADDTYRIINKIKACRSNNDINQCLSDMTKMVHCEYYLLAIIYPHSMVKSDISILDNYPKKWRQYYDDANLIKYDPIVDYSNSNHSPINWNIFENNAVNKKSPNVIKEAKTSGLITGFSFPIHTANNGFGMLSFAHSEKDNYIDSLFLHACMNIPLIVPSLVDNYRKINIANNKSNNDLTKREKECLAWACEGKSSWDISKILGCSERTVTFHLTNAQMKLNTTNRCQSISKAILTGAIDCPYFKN
Assay: Agonist activity at Vibrio fischeri LuxR-mediated quorum sensing expressed in Escherichia coli JB523 assessed as GFP expression at 0.25 mM after 24 hrs by reporter gene assay
Type: functional
The source made the active and inactive calls. No cut-off for these calls is given here.
assay-readout: Activity

compound="CCCCCCCCCCCCc1cn(C2CCOC2=O)nn1 (stereo not given)" assay_readout=Activity result=inactive
compound="CCCCCc1cn(C2CCOC2=O)nn1 (stereo not given)" assay_readout=Activity result=5.7%
compound="CCCCCCCc1cn(C2CCOC2=O)nn1 (stereo not given)" assay_readout=Activity result=8%
compound="O=C1OCCC1n1cc(Cc2ccccc2)nn1 (stereo not given)" assay_readout=Activity result=inactive
compound="CCCCc1cn(C2CCOC2=O)nn1 (stereo not given)" assay_readout=Activity result=inactive
compound="O=C1OCCC1n1cc(-c2ccccc2)nn1 (stereo not given)" assay_readout=Activity result=inactive
compound="CCCCCCCCCCc1cn(C2CCOC2=O)nn1 (stereo not given)" assay_readout=Activity result=inactive
compound="CCCCCCc1cn(C2CCOC2=O)nn1 (stereo not given)" assay_readout=Activity result=10%
compound="CCCCCCCCc1cn(C2CCOC2=O)nn1 (stereo not given)" assay_readout=Activity result=inactive
compound="O=C1OCCC1n1cc(CCc2ccccc2)nn1 (stereo not given)" assay_readout=Activity result=inactive

---

The molecules listed here are annotated with their inhibition.
biological target: UniProtKB P12746; assay: Antagonist activity at Vibrio fischeri LuxR-mediated quorum sensing expressed in Escherichia coli JB523 assessed as inhibition of C6-HSL-induced GFP expression at 1 mM after 24 hrs by reporter gene assay; type: functional
assay-readout: inhibition (%)

molecule="O=C1OCCC1n1cc(Cc2ccccc2)nn1 (stereo not given)" unit_info=% numeric_value=34.4
molecule="O=C1OCCC1n1cc(CCc2ccccc2)nn1 (stereo not given)" unit_info=% numeric_value=29.2
molecule="CCCCCCCCCCc1cn(C2CCOC2=O)nn1 (stereo not given)" unit_info=% numeric_value=31.9
molecule="CCCCCc1cn(C2CCOC2=O)nn1 (stereo not given)" unit_info=% numeric_value=35.1
molecule="O=C1OCCC1n1cc(-c2ccccc2)nn1 (stereo not given)" unit_info=% numeric_value=26.9
molecule="CCCCCCCCCCCCc1cn(C2CCOC2=O)nn1 (stereo not given)" unit_info=% numeric_value=34.4
molecule="CCCCCCc1cn(C2CCOC2=O)nn1 (stereo not given)" unit_info=% numeric_value=34.3
molecule="CCCCCCCc1cn(C2CCOC2=O)nn1 (stereo not given)" unit_info=% numeric_value=39
molecule="CCCCCCCCc1cn(C2CCOC2=O)nn1 (stereo not given)" unit_info=% numeric_value=71.6
molecule="CCCCc1cn(C2CCOC2=O)nn1 (stereo not given)" unit_info=% numeric_value=27.9

---

test system: Pseudomonas aeruginosa; experiment: Antagonist activity at Pseudomonas aeruginosa QSIS2 LasR-mediated quorum sensing co-expressing SacB1 assessed as inhibition of 3-oxo-C12-HSL-induced luminescence at 0.5 mM after 24 hrs by reporter gene assay; format: functional
assay-readout: inhibition

molecule="CCCCCCCCCCCCc1cn(C2CCOC2=O)nn1 (stereo not drawn)" result=30.9%
molecule="CCCCCCCCCCc1cn(C2CCOC2=O)nn1 (stereo not drawn)" result=15%

---

target: Transcriptional activator protein LuxR (Aliivibrio fischeri) (UniProt P12746); experiment: Agonist activity at Vibrio fischeri LuxR-mediated quorum sensing expressed in Escherichia coli JB523 assessed as GFP expression at 1 mM after 24 hrs by reporter gene assay; format: functional
Calls of active or inactive are those of the source. The calls are words filed in the database; no cut-off is given here.
assay-readout: Activity

molecule="CCCCCc1cn(C2CCOC2=O)nn1 (stereo not given)" assay_readout=Activity result=25.9%
molecule="CCCCCCCCCCc1cn(C2CCOC2=O)nn1 (stereo not given)" assay_readout=Activity result=inactive
molecule="O=C1OCCC1n1cc(-c2ccccc2)nn1 (stereo not given)" assay_readout=Activity result=12.8%
molecule="CCCCCCCCc1cn(C2CCOC2=O)nn1 (stereo not given)" assay_readout=Activity result=10.6%
molecule="O=C1OCCC1n1cc(CCc2ccccc2)nn1 (stereo not given)" assay_readout=Activity result=inactive
molecule="O=C1OCCC1n1cc(Cc2ccccc2)nn1 (stereo not given)" assay_readout=Activity result=inactive
molecule="CCCCCCCCCCCCc1cn(C2CCOC2=O)nn1 (stereo not given)" assay_readout=Activity result=inactive
molecule="CCCCCCc1cn(C2CCOC2=O)nn1 (stereo not given)" assay_readout=Activity result=32.7%
molecule="CCCCc1cn(C2CCOC2=O)nn1 (stereo not given)" assay_readout=Activity result=17.3%
molecule="CCCCCCCc1cn(C2CCOC2=O)nn1 (stereo not given)" assay_readout=Activity result=17.6%

---

Target: Transcriptional activator protein LuxR (Aliivibrio fischeri) (UniProt P12746)
Sequence (whole entry): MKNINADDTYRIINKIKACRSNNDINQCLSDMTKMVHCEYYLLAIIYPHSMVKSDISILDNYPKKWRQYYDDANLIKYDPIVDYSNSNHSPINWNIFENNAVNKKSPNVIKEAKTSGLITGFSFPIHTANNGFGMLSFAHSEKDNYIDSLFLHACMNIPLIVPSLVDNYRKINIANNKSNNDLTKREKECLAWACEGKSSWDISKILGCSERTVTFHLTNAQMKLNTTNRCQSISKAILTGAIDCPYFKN
Experiment: Antagonist activity at Vibrio fischeri LuxR expressed in Escherichia coli JB523 assessed as inhibition of C6-HSL-induced GFP expression at 0.5 mM after 24 hrs by reporter gene assay
Type: functional
Hi, to clarify the labels: satisfied covers inhibition from 30% upward, not satisfied covers anything below 30%.

compound="O=C1OCCC1n1cc(CCc2ccccc2)nn1 (stereo not given)" test_system="Transcriptional activator protein LuxR (Aliivibrio fischeri) (UniProt P12746)" class_name="not satisfied"
compound="CCCCCCCCCCc1cn(C2CCOC2=O)nn1 (stereo not given)" test_system="Transcriptional activator protein LuxR (Aliivibrio fischeri) (UniProt P12746)" class_name="not satisfied"
compound="CCCCCCCCCCCCc1cn(C2CCOC2=O)nn1 (stereo not given)" test_system="Transcriptional activator protein LuxR (Aliivibrio fischeri) (UniProt P12746)" class_name="not satisfied"
compound="CCCCCCc1cn(C2CCOC2=O)nn1 (stereo not given)" test_system="Transcriptional activator protein LuxR (Aliivibrio fischeri) (UniProt P12746)" class_name="not satisfied"
compound="CCCCCCCc1cn(C2CCOC2=O)nn1 (stereo not given)" test_system="Transcriptional activator protein LuxR (Aliivibrio fischeri) (UniProt P12746)" class_name=satisfied
compound="CCCCc1cn(C2CCOC2=O)nn1 (stereo not given)" test_system="Transcriptional activator protein LuxR (Aliivibrio fischeri) (UniProt P12746)" class_name="not satisfied"
compound="CCCCCc1cn(C2CCOC2=O)nn1 (stereo not given)" test_system="Transcriptional activator protein LuxR (Aliivibrio fischeri) (UniProt P12746)" class_name="not satisfied"
compound="O=C1OCCC1n1cc(-c2ccccc2)nn1 (stereo not given)" test_system="Transcriptional activator protein LuxR (Aliivibrio fischeri) (UniProt P12746)" class_name="not satisfied"
compound="CCCCCCCCc1cn(C2CCOC2=O)nn1 (stereo not given)" test_system="Transcriptional activator protein LuxR (Aliivibrio fischeri) (UniProt P12746)" class_name=satisfied
